# Protocol details: chemical genetic growth profiling, strain panel (AID 1159580);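 also: tested at 20 µM; growth read once vehicle control cultures reached saturation at 30 °C; 1 = growth at the plate median or of vehicle wells; lower values mean less growth of the strain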
# Measurement setup: S. cerevisiae deletion strains, growth OD, locus YDL074C, strain BRE1, hits give low values
Hit rate of the full screen: of about 5,500 compounds, about 2,000 (36%) were called active. About 18% were inconclusive and are not listed. The list shows a part of the results.
Measured metric: normalized growth
Provide a numeric answer; units are not to be included.

Recorded normalized growth, per entry:
1. COC(=O)C1=C(C)NC(C)=C(C(=O)OCCN(C)Cc2ccccc2)C1c1cccc([N+](=O)[O-])c1 (stereo not drawn) :: 0.917
2. CC(=O)N(O)CCCCCNC(=O)CCC(=O)N(O)CCCCCNC(=O)CCC(=O)N(O)CCCCCN :: 0.907

Fill blank: measured normalized growth of the compound COC(=O)C1=C(C)NC(C)=C(C(=O)OC)C1c1ccccc1[N+](=O)[O-] is ____.
0.905

###

# Protocol details: chemical genetic growth profiling, strain panel (AID 1159580);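 also: tested at 20 µM; growth read once vehicle control cultures reached saturation at 30 °C; 1 = growth at the plate median or of vehicle wells; lower values mean less growth of the strain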
# Measurement setup: S. cerevisiae deletion strains, growth OD, locus YLR342W, strain FKS1, hits give low values
Among all 5,500 compounds or so, about 2,000 (36%) were called active. About 18% were inconclusive and are not listed. Some of the results follow.
Measured metric: normalized growth
Give the figure by itself; no unit, no explanation.

1. OC1C(O)C(O)C(O)C(O)C1O (stereo not drawn) :: 0.995
2. NCCc1ccc(O)c(O)c1 :: 0.999
3. CC(=O)Oc1ccc(-c2cc(=O)c3c(OC(C)=O)cc(OC(C)=O)cc3o2)cc1 :: 0.968

I'd like to know its normalized growth. The compound in question is COc1ccc(-c2cc(=O)c3c(OC)c(OC)c(OC)c(OC)c3o2)cc1
0.904

Same lookup for NCCc1ccc(O)cc1 , please.
0.98

// same read-out, input: CC(=O)OCC(=O)[C@H]1CCC2C3CC=C4C[C@@H](O)CC[C@]4(C)C3CC[C@@]21C (stereo partly drawn)
0.762

Next compound up: CCCCC1C(=O)N(c2ccccc2)N(c2ccccc2)C1=O
0.978

Then NC(=O)CC[C@@H](N)C(=O)O ?
1.03

Param item: CCC(/C=C/[C@@H](C)[C@H]1CCC2C3CC=C4C[C@@H](O)CC[C@]4(C)C3CC[C@@]21C)C(C)C (stereo partly drawn)
0.986

Okay, and CC(=O)[C@H]1CCC2C3CC=C4C[C@@H](O)CC[C@]4(C)C3CC[C@@]21C (stereo partly drawn) ?
0.915

###

# Protocol details: chemical genetic growth profiling, strain panel (AID 1159580);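 also: tested at 20 µM; growth read once vehicle control cultures reached saturation at 30 °C; 1 = growth at the plate median or of vehicle wells; lower values mean less growth of the strain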
# Measurement setup: S. cerevisiae deletion strains, growth OD, locus YNL222W, strain SSU72, hits give low values
Screen size: about 5,500 compounds; about 2,000 (36%) were called active. Inconclusive results (about 18%) are left out. This is one part of the list.
Measured normalized growth values are reported for all entries that follow.
Answer field: number only, no words.

# count of solved cases: 2
1) O=C1c2ccccc2O[C@@H](c2ccccc2)[C@@H]1NCc1ccccc1 :: 0.923
2) CC(C)(C)c1cc2nc(C(F)(F)F)cc(NNC(=O)c3ccc(Cl)cc3)n2n1 :: 0.975

Any idea what normalized growth was measured for Cc1ccc2c(c1)CCCN2CC(=O)N(c1ccccc1)C1CCCCC1 ?
0.983

Next molecule up: CC(C)CSc1nnc(CSCc2nc(-c3ccc(Cl)cc3)cs2)n1C
0.972

How about Cc1cc(C(=O)N(c2ccccc2)C(C)C2CC2)c(Cl)cc1Cl (configuration not stated) ?
0.988

Please give the result for CCC(C)COC(=O)/C=C/c1ccc(N=Cc2ccc(OC)cc2)cc1 (configuration not stated) too.
0.972

Another: O=C1c2ccccc2O[C@@H](c2ccccc2)[C@@H]1NC1CCCCC1
0.919

Each recorded value in this set is attributed to PubChem BioAssay AID1159580.
